Test system: C. albicans ATCC 10231
Settings: ATCC 10231, 24 h
Where a SMILES comes first, the peptide text is derived from it. Bridges are numbered along the chain shown (N, C = ends). Roman numbers before positions name the chains, in order. Side-chain parts run from the residue outwards. [ ]: non-standard residue; d: D form. The star is where a group is joined. Lauroyl = CCCCCCCCCCCC(=O)*; Nle = CCCC[C@H](N)C(=O)O; Octanoyl = CCCCCCCC(=O)*
property.measured: MIC C. albicans ATCC 10231 (µg/mL)
# value in µg/mL; strip the unit string

For orientation, consider the following solved cases.
CCCCCCCC(=O)N[C@@H](CCCC)C(=O)N[C@@H](CCCNC(=N)N)C(=O)N[C@@H](CCCNC(=N)N)C(=O)N[C@@H](CSSC[C@H](NC(=O)[C@H](CCCNC(=N)N)NC(=O)[C@H](CCCNC(=N)N)NC(=O)[C@H](CCCC)NC(=O)CCCCCCC)C(N)=O)C(N)=O [Compound C6] (I: Octanoyl-[Nle]RRC-NH2 / II: Octanoyl-[Nle]RRC-NH2; disulfide I:4-II:4) | 16
CCCCCCCC(=O)N[C@@H](CCCNC(=N)N)C(=O)N[C@@H](CCCNC(=N)N)C(=O)NCCCC[C@H](NC(=O)[C@H](CCCNC(=N)N)NC(=O)[C@H](CCCNC(=N)N)NC(=O)CCCCCCC)C(N)=O [Compound B1] (Octanoyl-Arg-Arg-Lys([Arg-Arg-Octanoyl])-NH2) | 64

Kindly consider the entry below.
Which MIC C. albicans ATCC 10231 value belongs to CCCCCCCCCCCC(=O)N[C@@H](CCCNC(=N)N)C(=O)N[C@@H](CCCNC(=N)N)C(=O)N[C@@H](CSSC[C@H](NC(=O)[C@H](CCCNC(=N)N)NC(=O)[C@H](CCCNC(=N)N)NC(=O)CCCCCCCCCCC)C(N)=O)C(N)=O [Compound C3] (I: Lauroyl-Arg-Arg-Cys-NH2 / II: Lauroyl-Arg-Arg-Cys-NH2; disulfide I:3-II:3) ?
1

###

Test system: Staphylococcus aureus ATCC 25923
Conditions: ATCC 25923, 24 h
Source text: The Acinetobacter baumannii ATCC BAA-1605, Enterococcus faecium ATCC 700221, Escherichia coli ML-35 ATCC 43827, Klebsiella aerogenes ATCC 13048, Klebsiella pneumoniae ATCC 700603, Pseudomonas aeruginosa ATCC 9027, Staphylococcus aureus ATCC 25923, Staphylococcus aureus ATCC 33591, Candida albicans ATCC 10231, Candida glabrata ATCC 15126, strains were acquired from the American Type Culture Collection (ATCC). […]
Where a SMILES comes first, the peptide text is derived from it. Side-chain parts run from the residue outwards. The star is where a group is joined. Lauroyl = CCCCCCCCCCCC(=O)*; Octanoyl = CCCCCCCC(=O)*
property.measured: MIC Staphylococcus aureus ATCC 25923 (µg/mL)

For orientation, consider the following solved cases.
CCCCCCCCCCCC(=O)N[C@@H](CCCNC(=N)N)C(=O)N[C@@H](CCCNC(=N)N)C(=O)NCCCC[C@H](NC(=O)[C@H](CCCNC(=N)N)NC(=O)[C@H](CCCNC(=N)N)NC(=O)CCCCCCCCCCC)C(N)=O [Compound B3] (Lauroyl-Arg-Arg-Lys([Arg-Arg-Lauroyl])-NH2) | 4
CCCCCCC(CCCC)C(=O)N[C@@H](CCCNC(=N)N)C(=O)N[C@@H](CCCNC(=N)N)C(=O)NCCCC[C@H](NC(=O)[C@H](CCCNC(=N)N)NC(=O)[C@H](CCCNC(=N)N)NC(=O)C(CCCC)CCCCCC)C(N)=O (some centres unmarked) | 1

a. CCCCCCCCCCCC(=O)N[C@@H](CCCNC(=N)N)C(=O)N[C@@H](CCCNC(=N)N)C(N)=O [Compound A3, C12-RR-NH2] (Lauroyl-Arg-Arg-NH2)
b. CCCCCCCC(=O)N[C@@H](CCCNC(=N)N)C(=O)N[C@@H](CCCNC(=N)N)C(=O)NCCCC[C@H](NC(=O)[C@H](CCCNC(=N)N)NC(=O)[C@H](CCCNC(=N)N)NC(=O)CCCCCCC)C(N)=O [Compound B1] (Octanoyl-Arg-Arg-Lys([Arg-Arg-Octanoyl])-NH2)
Higher MIC Staphylococcus aureus ATCC 25923: a or b ? Let me know the label of the one you choose.
a
(a: 32 µg/mL, b: 4 µg/mL)

###

Test system: Klebsiella aerogenes ATCC 13048
Conditions: ATCC 13048, 24 h
Text: The Acinetobacter baumannii ATCC BAA-1605, Enterococcus faecium ATCC 700221, Escherichia coli ML-35 ATCC 43827, Klebsiella aerogenes ATCC 13048, Klebsiella pneumoniae ATCC 700603, Pseudomonas aeruginosa ATCC 9027, Staphylococcus aureus ATCC 25923, Staphylococcus aureus ATCC 33591, Candida albicans ATCC 10231, Candida glabrata ATCC 15126, strains were acquired from the American Type Culture Collection (ATCC). […]
Where a SMILES comes first, the peptide text is derived from it. Bridges are numbered along the chain shown (N, C = ends). Roman numbers before positions name the chains, in order. Side-chain parts run from the residue outwards. The star is where a group is joined. Myristoyl = CCCCCCCCCCCCCC(=O)*; Lauroyl = CCCCCCCCCCCC(=O)*; Decanoyl = CCCCCCCCCC(=O)*
Here the recorded MIC Klebsiella aerogenes ATCC 13048 is given for each entry.
# value in µg/mL; strip the unit string

CCCCCCCCCC(=O)N[C@@H](CCCNC(=N)N)C(=O)N[C@@H](CCCNC(=N)N)C(=O)N[C@@H](CSSC[C@H](NC(=O)[C@H](CCCNC(=N)N)NC(=O)[C@H](CCCNC(=N)N)NC(=O)CCCCCCCCC)C(N)=O)C(N)=O [Compound C2] (I: Decanoyl-Arg-Arg-Cys-NH2 / II: Decanoyl-Arg-Arg-Cys-NH2; disulfide I:3-II:3) | 128
CCCCCCCCCCCC(=O)N[C@@H](CCCNC(=N)N)C(=O)N[C@@H](CCCNC(=N)N)C(=O)NCCCC[C@H](NC(=O)[C@H](CCCNC(=N)N)NC(=O)[C@H](CCCNC(=N)N)NC(=O)CCCCCCCCCCC)C(N)=O [Compound B3] (Lauroyl-Arg-Arg-Lys([Arg-Arg-Lauroyl])-NH2) | 32

Kindly consider the entry below.
# value lookup — system Klebsiella aerogenes ATCC 13048, readout MIC Klebsiella aerogenes ATCC 13048, item CCCCCCCCCCCCCC(=O)N[C@@H](CCCNC(=N)N)C(=O)N[C@@H](CCCNC(=N)N)C(=O)NCCCC[C@H](NC(=O)[C@H](CCCNC(=N)N)NC(=O)[C@H](CCCNC(=N)N)NC(=O)CCCCCCCCCCCCC)C(N)=O [Compound B4] (Myristoyl-Arg-Arg-Lys([Arg-Arg-Myristoyl])-NH2)
32

###

Here the recorded MIC Klebsiella aerogenes ATCC 13048 is given for each entry.
Tested on: Klebsiella aerogenes ATCC 13048
Details: ATCC 13048, 24 h
Where a SMILES comes first, the peptide text is derived from it. Side-chain parts run from the residue outwards. The star is where a group is joined. Decanoyl = CCCCCCCCCC(=O)*
# value in µg/mL; strip the unit string

CCCCCCC(CCCC)C(=O)N[C@@H](CCCNC(=N)N)C(=O)N[C@@H](CCCNC(=N)N)C(=O)NCCCC[C@H](NC(=O)[C@H](CCCNC(=N)N)NC(=O)[C@H](CCCNC(=N)N)NC(=O)C(CCCC)CCCCCC)C(N)=O (stereo partly drawn) | 16

Kindly consider the entry below.
Which MIC Klebsiella aerogenes ATCC 13048 value belongs to CCCCCCCCCC(=O)N[C@@H](CCCNC(=N)N)C(=O)N[C@@H](CCCNC(=N)N)C(=O)NCCCC[C@H](NC(=O)[C@H](CCCNC(=N)N)NC(=O)[C@H](CCCNC(=N)N)NC(=O)CCCCCCCCC)C(N)=O [Compound B2] (Decanoyl-Arg-Arg-Lys([Arg-Arg-Decanoyl])-NH2) ?
128

###

Here the recorded Difference in retention time calculated as tR’C—tR’B is given for each entry.
Experiment: Lipopeptide hydrophobicity by RP-HPLC (adjusted retention time)
Format: physicochemical
Conditions: between corresponding surfactants of series C and B
Where a SMILES comes first, the peptide text is derived from it. Bridges are numbered along the chain shown (N, C = ends). Roman numbers before positions name the chains, in order. The star is where a group is joined. Decanoyl = CCCCCCCCCC(=O)*; Octanoyl = CCCCCCCC(=O)*
# value in min; strip the unit string

For orientation, consider the following solved cases.
CCCCCCC(CCCC)C(=O)N[C@@H](CCCNC(=N)N)C(=O)N[C@@H](CCCNC(=N)N)C(=O)N[C@@H](CSSC[C@H](NC(=O)[C@H](CCCNC(=N)N)NC(=O)[C@H](CCCNC(=N)N)NC(=O)C(CCCC)CCCCCC)C(N)=O)C(N)=O (stereo partly drawn) | 0.15
CCCCCCCC(=O)N[C@@H](CCCNC(=N)N)C(=O)N[C@@H](CCCNC(=N)N)C(=O)N[C@@H](CSSC[C@H](NC(=O)[C@H](CCCNC(=N)N)NC(=O)[C@H](CCCNC(=N)N)NC(=O)CCCCCCC)C(N)=O)C(N)=O [Compound C1] (I: Octanoyl-Arg-Arg-Cys-NH2 / II: Octanoyl-Arg-Arg-Cys-NH2; disulfide I:3-II:3) | 0.15

Kindly consider the entry below.
Which Difference in retention time calculated as tR’C—tR’B value belongs to CCCCCCCCCC(=O)N[C@@H](CCCNC(=N)N)C(=O)N[C@@H](CCCNC(=N)N)C(=O)N[C@@H](CSSC[C@H](NC(=O)[C@H](CCCNC(=N)N)NC(=O)[C@H](CCCNC(=N)N)NC(=O)CCCCCCCCC)C(N)=O)C(N)=O [Compound C2] (I: Decanoyl-Arg-Arg-Cys-NH2 / II: Decanoyl-Arg-Arg-Cys-NH2; disulfide I:3-II:3) ?
0.21
